// Human KLKB1 protein (Homo sapiens) pIC50 records
pIC50: −log10 of the molar value.

- SMILES_STRING: "O=C(c1ccoc1)n1nc(-c2ccn(Cc3ccccn3)c(=O)c2)cc1NCc1ccc(Cl)s1"
  pIC50: "6.00 to 7.00"
- SMILES_STRING: "O=c1cccc(-c2cc(NCc3ccc(Cl)s3)[nH]n2)[nH]1"
  pIC50: "< 4.00"
- SMILES_STRING: "O=C(Cn1ccc(-c2cc(NCc3ccc(Cl)s3)n(C(=O)c3ccsc3)n2)cc1=O)N1CCOCC1"
  pIC50: "5.00 to 6.00"
- SMILES_STRING: "O=c1cc(-c2cc(NCc3ccc(Cl)s3)[nH]n2)ccn1Cc1cccnc1"
  pIC50: "< 4.00"
- SMILES_STRING: "O=C(c1ccsc1)n1nc(-c2cc[nH]c(=O)c2)cc1NCc1ccc(Cl)s1"
  pIC50: "6.00 to 7.00"
- SMILES_STRING: "CC(C)(C)C(=O)n1nc(-c2ccc(=O)[nH]c2)cc1NCc1ccc(Cl)s1"
  pIC50: "4.00 to 5.00"
- SMILES_STRING: "CC(C)(C)C(=O)n1nc(-c2cccc(=O)n2CC(=O)N2CCOCC2)cc1NCc1ccc(Cl)s1"
  pIC50: "< 4.00"
- SMILES_STRING: "O=C(c1ccsc1)n1nc(-c2ccn(CCN3CCOCC3)c(=O)c2)cc1NCc1ccc(Cl)s1"
  pIC50: "6.00 to 7.00"

====

// Human KLKB1 protein (Homo sapiens, UniProt P03952) pIC50 records
pIC50: −log10 of the molar value.

- SMILES_STRING: "CC(C)(C)C(=O)n1nc(-c2cc(Br)cn(CC(=O)N3CCOCC3)c2=O)cc1NCc1ccc(Cl)s1"
  pIC50: "5.00 to 6.00"
- SMILES_STRING: "CC(C)(C)C(=O)n1nc(-c2cc(N3CCOCC3)[nH]c(=O)c2)cc1NCc1ccc(Cl)s1"
  pIC50: "< 4.00"
- SMILES_STRING: "CC(C)(C)C(=O)n1nc(-c2cc(-c3ccccc3)c[nH]c2=O)cc1NCc1ccc(Cl)s1"
  pIC50: "4.00 to 5.00"
- SMILES_STRING: "O=C(c1ccsc1)n1nc(-c2cc(Br)c[nH]c2=O)cc1NCc1ccc(Cl)s1"
  pIC50: "6.00 to 7.00"
- SMILES_STRING: "COCCn1ccc(-c2cc(NCc3ccc(Cl)s3)n(C(=O)c3ccoc3)n2)cc1=O"
  pIC50: "5.00 to 6.00"
- SMILES_STRING: "O=c1cc(-c2cc(NCc3ccc(Cl)s3)[nH]n2)cc[nH]1"
  pIC50: "< 4.00"
- SMILES_STRING: "CC(C)(C)C(=O)n1nc(-c2cc(Br)c[nH]c2=O)cc1NCc1ccc(Cl)s1"
  pIC50: "4.00 to 5.00"
- SMILES_STRING: "CC(C)(C)C(=O)n1nc(-c2cccc(=O)n2Cc2ccccn2)cc1NCc1ccc(Cl)s1"
  pIC50: "< 4.00"
- SMILES_STRING: "O=C(c1ccsc1)n1nc(-c2cc(-c3ccccc3)[nH]c(=O)c2)cc1NCc1ccc(Cl)s1"
  pIC50: "< 4.00"
- SMILES_STRING: "CC(C)(C)C(=O)n1nc(-c2ccn(CC(=O)N3CCOCC3)c(=O)c2)cc1NCc1ccc(Cl)s1"
  pIC50: "4.00 to 5.00"
- SMILES_STRING: "CC(C)(C)C(=O)n1nc(-c2cc(Br)[nH]c(=O)c2)cc1NCc1ccc(Cl)s1"
  pIC50: "4.00 to 5.00"
- SMILES_STRING: "C=Cc1ccc(-c2cc(NCc3ccc(Cl)s3)n(C(=O)C(C)(C)C)n2)[nH]c1=O"
  pIC50: "4.00 to 5.00"
- SMILES_STRING: "CC(C)(C)C(=O)n1nc(-c2cc[nH]c(=O)c2)cc1NCc1ccc(Cl)s1"
  pIC50: "5.00 to 6.00"
- SMILES_STRING: "CC(C)(C)C(=O)n1nc(-c2ccn(Cc3cccnc3)c(=O)c2)cc1NCc1ccc(Cl)s1"
  pIC50: "6.00 to 7.00"
